- Tested on: MS2 coat protein
- Assay protocol: apparent KD of MS2 coat protein; higher = weaker reporter binding
- Measurement context: Eterna round: R107; input ligand: tryptophan 2.4 mM
Reported endpoint: apparent KD of MS2 coat protein (nM)
Please reply with the bare figure in nM and do not write the unit itself.

Quick check: apparent KD of MS2 coat protein on MS2 coat protein, item CAGUCAGUCAGUCAAUGAGUGAGGCAUGAAGGAGCGUGGGAAACCACAGGUAGGUCGCAUGCGGAACAUGAGGAUCACCCAUGUU [SSArg A #4] ? 27.7

Next record, please: AAUGUGAUAGUCGUACUCUCACACUGAGAAGGAGCGCGAAAGUUCGCAGGUAGGUCGCUCAGUUAUACAUGAGGAUCACCCAUGU [Edgeised] 20.9

Next record, please: AAUCAUGGAAACAUGACAUGAGGGUUACUCCGAGGACCGGUACGGCCGCCACUCGCGAGGAGGCGGACAUGAGGAUCACCCAUGU [#04 Tryptophan A Same State] 41.6

----------
- Test system: MS2 coat protein
- Assay protocol: apparent KD of MS2 coat protein; designed switch direction (-1 OFF switch, 1 ON switch): -1; higher = weaker reporter binding
- Measurement context: input ligand: none
Reported endpoint: apparent KD of MS2 coat protein
Answer with the number, then the unit.

Use the examples below as a reference point.
ACAUGAGGAUCACCCAUGUCCGGCUGGUCUGUCUCGGCUGUCGAGGAUAUAGCACGGUAUCCGCGCUAGAAGGCGGGAGCCGGG [Aenatbe mod 88] (Eterna round: R96, puzzle: Exclusion NG 3)
193 nM
CCUCCGCAUUAGGAUAUCGUCACAGAAAUGUGACGAGAAGGAAUGACAUGAGGAUCACCCAUGUUAACGUGAUG [Mod of Brourd 15 - Jieux - Exclusion 6] (Eterna round: R97, puzzle: Exclusion 6)
48.7 nM

Please look up its apparent KD of MS2 coat protein: CAAAGAUAAGGAUAUUGAAGGUUCGACAUGAGGAUCACCCAUGUUAUGUUGGAAAAGGGACAAGAAGGUAUGAAAC [salish99_ex5_r4_211] (Eterna round: R97, puzzle: Exclusion 5) 35.8 nM

Next record, please: GAUAGAGCAGGAUAUCGAGAUCCGCACAUGAGGAUCACCCAUGUUCGGUCGAAAGACCGACGAGAAGGGCUCUAUC [Omei Ex5 E8] (Eterna round: R97, puzzle: Exclusion 5) 603 nM

Next record, please: AUCCUUAACAAGGAUAUCGGGCGGGUUUUUGUUUGAGAAGGUGUGACAUGAGGAUCACCCAUGUGGCGCGUGGG [-22, -20.4 kcal, A 22%] (Eterna round: R97, puzzle: Exclusion 6) 887 nM

Next record, please: CUCACGUCAGGAUAUCUACAUUAAAUUGGUAACCAAGCAUGAGAGAAGGGACAUGAGGAUCACCCAUGUAAAAC [Ceisusma] (Eterna round: R97, puzzle: Exclusion 4) 48.7 nM

Next record, please: GGAGCAAGUGUCAGGAUAUCGUGGUCGAUAGAUCACGAGAAGGGACAUGAGGAUCACCCAUGUGCCUCAGCUCC [Mat - Exclusion 4 - Eli Mod - D60] (Eterna round: R97, puzzle: Brourd's mod of Exclusion 4) 214 nM

Next record, please: UAUCGGGACUGAGGAUAUUCGUUCGAACACGAAGAAGAAGGUAGUGUCAGGGACAUGAGGAUCACCCAUGUGAACUCAGUCCUA [JL ViennaUCT Erinle mod] (Eterna round: R96, puzzle: Exclusion NG 1) 38.3 nM

Next record, please: AUAUAGUCAGGAUAUACAUGAGGAUCACCCAUGUGGUAGUAGAUACAGUAGAGAUAGAGUAGAAGGGACGAUGA [EX3 #24] (Eterna round: R97, puzzle: Exclusion 3) 31 nM
